- target: Phospho-N-acetylmuramoyl-pentapeptide-transferase (Escherichia coli K-12)
- Sequence (P0A6W3 whole entry): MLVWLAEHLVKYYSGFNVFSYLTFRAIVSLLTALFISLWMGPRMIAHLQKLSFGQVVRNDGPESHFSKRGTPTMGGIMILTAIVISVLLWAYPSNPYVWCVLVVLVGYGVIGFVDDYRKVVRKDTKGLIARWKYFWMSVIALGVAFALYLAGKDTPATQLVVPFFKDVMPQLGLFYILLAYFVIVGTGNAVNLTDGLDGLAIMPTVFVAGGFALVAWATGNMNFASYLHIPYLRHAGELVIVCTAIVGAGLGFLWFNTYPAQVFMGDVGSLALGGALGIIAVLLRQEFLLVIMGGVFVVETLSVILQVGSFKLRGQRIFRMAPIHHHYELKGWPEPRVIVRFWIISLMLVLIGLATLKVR
- procedure text: Inhibitory concentration required against Translocase I
pIC50: −log10 of the molar value.

- compound: "CCCCCCCCCCCCCCCCCCCCCC(=O)O[C@@H]1[C@H](OC)[C@@H]([C@@H](O[C@H]2OC(C(=O)N[C@H]3CCC[C@@H](C)NC3=O)=C[C@H](O)[C@@H]2O)C(N)=O)O[C@H]1n1ccc(=O)[nH]c1=O"
  target: "Phospho-N-acetylmuramoyl-pentapeptide-transferase (Escherichia coli K-12)"
  pIC50: 4.78
- compound: "CCCCCCC(=O)O[C@@H]1[C@H](OC)[C@@H]([C@@H](O[C@H]2OC(C(=O)N[C@H]3CCC[C@@H](C)NC3=O)=C[C@H](O)[C@@H]2O)C(N)=O)O[C@H]1n1ccc(=O)[nH]c1=O"
  target: "Phospho-N-acetylmuramoyl-pentapeptide-transferase (Escherichia coli K-12)"
  pIC50: 7.19
- compound: "CCCCCC(=O)O[C@@H]1[C@H](OC)[C@@H]([C@@H](O[C@H]2OC(C(=O)N[C@H]3CCC[C@@H](C)NC3=O)=C[C@H](O)[C@@H]2O)C(N)=O)O[C@H]1n1ccc(=O)[nH]c1=O"
  target: "Phospho-N-acetylmuramoyl-pentapeptide-transferase (Escherichia coli K-12)"
  pIC50: 7.20
- compound: "CCCCCCCCCCCCCCCC(=O)O[C@@H]1[C@H](OC)[C@@H]([C@@H](O[C@H]2OC(C(=O)N[C@H]3CCC[C@@H](C)NC3=O)=C[C@H](O)[C@@H]2O)C(N)=O)O[C@H]1n1ccc(=O)[nH]c1=O"
  target: "Phospho-N-acetylmuramoyl-pentapeptide-transferase (Escherichia coli K-12)"
  pIC50: 6.28
- compound: "CCCCCCCCO[C@@H]1[C@H](OC)[C@@H]([C@@H](O[C@H]2OC(C(=O)N[C@H]3CCC[C@@H](C)NC3=O)=C[C@H](O)[C@@H]2O)C(N)=O)O[C@H]1n1ccc(=O)[nH]c1=O"
  target: "Phospho-N-acetylmuramoyl-pentapeptide-transferase (Escherichia coli K-12)"
  pIC50: 6.67
- compound: "CCCCCCCCOC(=O)O[C@@H]1[C@H](OC)[C@@H]([C@@H](O[C@H]2OC(C(=O)N[C@H]3CCC[C@@H](C)NC3=O)=C[C@H](O)[C@@H]2O)C(N)=O)O[C@H]1n1ccc(=O)[nH]c1=O"
  target: "Phospho-N-acetylmuramoyl-pentapeptide-transferase (Escherichia coli K-12)"
  pIC50: 6.17
- compound: "CCCCCCCO[C@@H]1[C@H](OC)[C@@H]([C@@H](O[C@H]2OC(C(=O)N[C@H]3CCC[C@@H](C)NC3=O)=C[C@H](O)[C@@H]2O)C(N)=O)O[C@H]1n1ccc(=O)[nH]c1=O"
  target: "Phospho-N-acetylmuramoyl-pentapeptide-transferase (Escherichia coli K-12)"
  pIC50: 7.09
- compound: "CCCCCCCCCCC(C)C(=O)O[C@@H]1[C@H](OC)[C@@H]([C@@H](O[C@H]2OC(C(=O)N[C@H]3CCC[C@@H](C)NC3=O)=C[C@H](O)[C@@H]2O)C(N)=O)O[C@H]1n1ccc(=O)[nH]c1=O (stereo not given in full)"
  target: "Phospho-N-acetylmuramoyl-pentapeptide-transferase (Escherichia coli K-12)"
  pIC50: 6.11
- compound: "CCCCCCCCCCCCCCCCCC(=O)O[C@@H]1[C@H](OC)[C@@H]([C@@H](O[C@H]2OC(C(=O)N[C@H]3CCC[C@@H](C)NC3=O)=C[C@H](O)[C@@H]2O)C(N)=O)O[C@H]1n1ccc(=O)[nH]c1=O"
  target: "Phospho-N-acetylmuramoyl-pentapeptide-transferase (Escherichia coli K-12)"
  pIC50: 5.03
- compound: "CCCCCCO[C@@H]1[C@H](OC)[C@@H]([C@@H](O[C@H]2OC(C(=O)N[C@H]3CCC[C@@H](C)NC3=O)=C[C@H](O)[C@@H]2O)C(N)=O)O[C@H]1n1ccc(=O)[nH]c1=O"
  target: "Phospho-N-acetylmuramoyl-pentapeptide-transferase (Escherichia coli K-12)"
  pIC50: 7.22
